assay: in vivo; details: NSG, mouse, plasma, oral, 50 mg/kg
QUANTITY_KIND: concentration at 2 weeks

Request: Identify measured concentration at 2 weeks corresponding to Cc1ccc(NC(=O)c2ccc(CN3CCN(C)CC3)cc2)cc1Nc1nccc(-c2cccnc2)n1
Result: ~1000 nM

Data provenance: patent US10391168B1
